Hello, the source for this data is patent US20260285853A1, in case you need it.

system: MYB mRNA; test: Splicing RT-qPCR assay, canonical (CJ) and alternative (AJ) junction mRNA, K562 cells; assay type: cell-based; details: Homo sapiens, K562.3 cells, 24 hours, read-out: MYB AJ (AC50, increase in AJ mRNA)
Where a name gives a salt, the structure may show the parent alone.
So I've got a bunch of compounds here, and I need their AC50 values.

Task: Consider the compound CCNC1CCN(c2ccc(C(=O)Nc3cc(F)c4nc(CC)cn4c3)c3nn(C)cc23)CC1 [Compound 201] and give its measured AC50.
Result: 1000 to 10000 nM

Task: Consider the compound C#CCN[C@@H]1CCN(c2ccc(C(=O)Nc3cc(F)c4nc(C)cn4c3)c3nn(C)cc23)C1 [Compound 122] and give its measured AC50.
Result: 100 to 1000 nM

Task: Consider the compound CN[C@@H]1CN(c2ccc(C(=O)Nc3cc(F)c4nc(C)cn4c3)c3nn(C)cc23)C[C@@H]1C [Compound 108] and give its measured AC50.
Result: 100 to 1000 nM

Task: Consider the compound CCNC1CCN(c2ccc(C(=O)Nc3cc(F)c4nc(C)cn4c3)c3c2nnn3C)CC1 [Compound 198, 2,2,2-trifluoroacetate] and give its measured AC50.
Result: > 10000 nM

Task: Consider the compound CCNC1CCN(c2ccc(C(=O)Nc3cn4cc(C)nc(C)c4n3)c3nn(C)cc23)CC1 [Compound 181] and give its measured AC50.
Result: 100 to 1000 nM

Task: Consider the compound Cc1cn2cc(NC(=O)c3ccc(N4C[C@@H](C)N[C@@H](C)C4)c4nn(C)nc34)cc(F)c2n1 [Compound 252, trifluoroacetate] and give its measured AC50.
Result: 100 to 1000 nM

Task: Consider the compound COc1cc(N2CCNCC2)c2cn(C)nc2c1C(=O)Nc1cc(F)c2nc(C)cn2c1 [Compound 250] and give its measured AC50.
Result: > 10000 nM

Task: Consider the compound CCNC1CCN(c2ccc(C(=O)Nc3cc(C)c4nc(C)cn4n3)c3nn(C)cc23)CC1 [Compound 186] and give its measured AC50.
Result: 100 to 1000 nM

Task: Consider the compound CCN[C@@H]1CCN(c2cc(O)c(C(=O)Nc3cc(F)c4nn(C)cc4c3)c3nn(C)cc23)C1 [Compound 294] and give its measured AC50.
Result: < 100 nM

Task: Consider the compound Cc1cn2cc(NC(=O)c3ccc(N4CC[C@@H]5CNCC[C@@H]54)c4cn(C)nc34)cc(F)c2n1 (stereo in doubt) [Compound 101, hydrochloride] and give its measured AC50.
Result: 100 to 1000 nM

Task: Consider the compound COc1c(NC(=O)c2ncc(N3CCNCC3)c3cn[nH]c23)cn2cc(C)nc2c1F [Compound 606] and give its measured AC50.
Result: > 10000 nM

Task: Consider the compound Cc1cn2cc(NC(=O)c3ccc(N4C[C@@H](C)N[C@@H](C)C4)c4c3nnn4C)cc(F)c2n1 [Compound 635] and give its measured AC50.
Result: 100 to 1000 nM

Task: Consider the compound Cc1cn2cc(NC(=O)c3ccc(N4CCC(NC5CC56CC6)CC4)c4cn(C)nc34)cc(F)c2n1 (stereo not drawn) [Compound 203] and give its measured AC50.
Result: < 100 nM

Task: Consider the compound CO[C@H]1C[C@H](N[C@H]2CCN(c3ccc(C(=O)Nc4cc(F)c5nc(C)cn5c4)c4nn(C)cc34)C2)C1 [Compound 275] and give its measured AC50.
Result: 100 to 1000 nM

Task: Consider the compound CCNC12CC(C1)N(c1ccc(C(=O)Nc3cc(F)c4nc(C)cn4c3)c3nn(C)cc13)C2 [Compound 136] and give its measured AC50.
Result: 100 to 1000 nM

Task: Consider the compound Cc1cn2cc(NC(=O)c3ccc(N4CCC(NC5CC5C)CC4)c4cn(C)nc34)cc(F)c2n1 (stereo not drawn) [Compound 204] and give its measured AC50.
Result: < 100 nM

Task: Consider the compound COCCN[C@@H]1CCN(c2cc(O)c(C(=O)Nc3cc(F)c4nc(C)cn4c3)c3nn(C)cc23)C1 [Compound 285] and give its measured AC50.
Result: < 100 nM

Task: Consider the compound COC1CC(N[C@H]2CCN(c3ccc(C(=O)Nc4cc(F)c5nc(C)cn5c4)c4nn(C)cc34)C2)C1 (stereo partly drawn) [Compound 268] and give its measured AC50.
Result: 100 to 1000 nM

Task: Consider the compound CCN[C@H]1CCN(c2cc(OC)c(C(=O)Nc3cc(F)c4nc(C)cn4c3)c3nn(C)cc23)C1 [Compound 146] and give its measured AC50.
Result: > 10000 nM

Task: Consider the compound COCC1(N[C@H]2CCN(c3ccc(C(=O)Nc4cc(F)c5nc(C)cn5c4)c4nn(C)cc34)C2)CC1 [Compound 118] and give its measured AC50.
Result: 1000 to 10000 nM

Task: Consider the compound CNC12CC(C1)N(c1ccc(C(=O)Nc3cc(F)c4nc(C)cn4c3)c3nn(C)cc13)C2 [Compound 135] and give its measured AC50.
Result: 100 to 1000 nM

Task: Consider the compound Cc1cn2cc(NC(=O)c3ccc(N4CCNCC4)c4nonc34)cc(F)c2n1 [Compound 263] and give its measured AC50.
Result: 100 to 1000 nM

Task: Consider the compound CCNC1CCN(c2cc(F)c(C(=O)Nc3cc(F)c4nc(C)cn4c3)c3[nH]ncc23)CC1 [Compound 174] and give its measured AC50.
Result: 100 to 1000 nM

Task: Consider the compound COc1c(NC(=O)c2c(F)cc(N3CCC(NC4CC4)CC3)c3cn(C)nc23)cn2cc(C)nc2c1F [Compound 207] and give its measured AC50.
Result: < 100 nM

Task: Consider the compound CCNC1CCN(c2ccc(C(=O)Nc3cc(F)c4nc(C)cn4c3)c3nn(C)nc23)CC1 [Compound 196] and give its measured AC50.
Result: 100 to 1000 nM

Task: Consider the compound Cc1cn2cc(C(=O)Nc3ccc(N4C[C@@H](C)N[C@@H](C)C4)c4cn[nH]c34)cc(F)c2n1 [Compound 215] and give its measured AC50.
Result: > 10000 nM

Task: Consider the compound CCNC1CCN(c2ccc(C(=O)Nc3ccc4nc(C)cn4c3)c3nn(C)cc23)CC1 [Compound 176] and give its measured AC50.
Result: 100 to 1000 nM

Task: Consider the compound CCNC1CCN(c2cc(F)c(C(=O)Nc3cc(F)c4nc(C)cn4c3)c3ccoc23)CC1 [Compound 195] and give its measured AC50.
Result: > 10000 nM

Task: Consider the compound Cc1cn2cc(NC(=O)c3c(F)cc(N4CCNCC4)c4occc34)cc(F)c2n1 [Compound 247] and give its measured AC50.
Result: > 10000 nM

Task: Consider the compound CN[C@@H]1C[C@@H](C)N(c2ccc(C(=O)Nc3cc(F)c4nc(C)cn4c3)c3nn(C)cc23)C1 [Compound 129] and give its measured AC50.
Result: 100 to 1000 nM
